These data points were gathered from patent US20070190523A1.

tested on: 46I50V; test: microbe, parasite or virus in culture; format: cell-based, HIV; settings: MT-4, 46I50V; read-out: Cell-based assay (MT-4) EC50/nM 46I50V
experimentalReadout: EC50 (nM)
Lab book: enter the figure in nM, no units written.

Kindly note the recorded EC50 for CCOP(=O)(COCCCN1C(=O)N(Cc2ccc3[nH]nc(N)c3c2)C(Cc2ccccc2)C(O)C(O)C1Cc1ccccc1)OCC (stereo not shown) [OCH2PO3Et2] , which is 138

====

EC50 for assorted compounds
target: 84V90M (Human immunodeficiency virus type 1 group M subtype B, UniProt P04585, I572V/L578M); experiment: Cell-based assay (MT-4) EC50, 84V90M; parameters: species or system HIV-1
Lab book: enter the figure in nM, no units written.

compound	experimentalResult
CCOP(=O)(CCNC(=O)Oc1ccc(CC2C(O)C(O)C(Cc3ccc(OC)cc3)N(Cc3ccc(O)cc3)C(=O)N2Cc2ccc(O)cc2)cc1)OCC (stereo not drawn) [OCH3 / Ph-pOH / OCONH(CH2)2PO3Et2]	495

Kindly note the recorded EC50 for CCOP(=O)(CCNC(=O)Oc1ccc(CC2C(O)C(O)C(Cc3ccc(OC)cc3)N(Cc3cccc(N)c3)C(=O)N2Cc2cccc(N)c2)cc1)OCC (stereo not drawn) [OCH3 / Ph-mNH2 / OCONH(CH2)2PO3Et2] , which is 2260
